Biological target: T1, recombinant cyno monkey PCSK9 protein (cyno monkey, UniProt A8T666 31-692 (rhesus entry), limits assumed, biotin-labelled in the ELISA (Biotin labeling kit))
T1 construct: also called cyno PCSK9; Cyno Monkey PCSK9-His
T1 sequence (A8T666 31-692 limits assumed): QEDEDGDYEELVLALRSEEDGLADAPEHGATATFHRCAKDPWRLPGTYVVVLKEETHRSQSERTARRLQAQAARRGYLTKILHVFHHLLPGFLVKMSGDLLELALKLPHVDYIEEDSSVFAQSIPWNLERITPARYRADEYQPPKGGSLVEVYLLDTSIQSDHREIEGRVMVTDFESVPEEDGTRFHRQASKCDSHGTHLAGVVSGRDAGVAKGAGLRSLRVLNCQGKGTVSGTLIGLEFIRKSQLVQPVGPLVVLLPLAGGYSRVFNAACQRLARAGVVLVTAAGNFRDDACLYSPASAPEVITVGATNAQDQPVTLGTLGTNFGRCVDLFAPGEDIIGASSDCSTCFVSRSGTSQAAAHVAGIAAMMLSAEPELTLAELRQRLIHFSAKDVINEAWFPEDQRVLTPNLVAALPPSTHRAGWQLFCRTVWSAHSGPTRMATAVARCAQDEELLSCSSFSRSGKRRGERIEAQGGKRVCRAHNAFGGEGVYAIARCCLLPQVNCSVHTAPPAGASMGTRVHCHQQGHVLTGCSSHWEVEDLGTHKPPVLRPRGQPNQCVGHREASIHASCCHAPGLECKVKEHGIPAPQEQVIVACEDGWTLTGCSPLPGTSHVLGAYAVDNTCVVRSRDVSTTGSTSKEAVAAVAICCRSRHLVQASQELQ
Assay: ELISA, biotin-cyno PCSK9 on streptavidin plate; antibody 0.67 nM
Value kind: OD450 nm (OD450 nm)
Number in OD450 nm, nothing else.

Guide cases for OD450 nm, answers given:
Binder	Units label	OD450 nm
76A1B11, chimeric anti-PCSK9 mAb purified from hybridoma (antibody, V domains shown, From Harbour H2L2 mice: human variable regions, rat constant regions) VH: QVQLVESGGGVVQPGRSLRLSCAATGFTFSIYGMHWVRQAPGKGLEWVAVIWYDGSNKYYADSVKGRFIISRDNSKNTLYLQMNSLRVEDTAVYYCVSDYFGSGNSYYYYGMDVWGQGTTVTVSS VL: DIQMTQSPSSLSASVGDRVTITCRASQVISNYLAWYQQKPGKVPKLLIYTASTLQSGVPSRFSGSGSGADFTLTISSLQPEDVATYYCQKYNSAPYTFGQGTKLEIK	OD450 nm	2.5
152G2F7, chimeric anti-PCSK9 mAb purified from hybridoma (antibody, V domains shown, From Harbour H2L2 mice: human variable regions, rat constant regions) VH: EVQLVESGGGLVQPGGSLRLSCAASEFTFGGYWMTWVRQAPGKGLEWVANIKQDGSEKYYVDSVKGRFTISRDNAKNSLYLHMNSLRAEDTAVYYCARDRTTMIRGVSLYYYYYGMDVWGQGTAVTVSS VL: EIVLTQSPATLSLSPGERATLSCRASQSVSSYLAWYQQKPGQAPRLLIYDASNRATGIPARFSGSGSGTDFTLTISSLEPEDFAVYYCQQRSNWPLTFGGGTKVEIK	OD450 nm	1.25
139G1C5, chimeric anti-PCSK9 mAb purified from hybridoma (antibody, V domains shown, From Harbour H2L2 mice: human variable regions, rat constant regions) VH: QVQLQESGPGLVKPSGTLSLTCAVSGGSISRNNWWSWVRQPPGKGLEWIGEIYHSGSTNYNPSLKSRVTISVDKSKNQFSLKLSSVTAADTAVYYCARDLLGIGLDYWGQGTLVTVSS VL: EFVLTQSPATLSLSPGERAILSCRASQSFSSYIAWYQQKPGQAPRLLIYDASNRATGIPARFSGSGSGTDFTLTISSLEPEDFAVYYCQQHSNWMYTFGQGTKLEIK	OD450 nm	2.67

API: the following record is the query input.
Incoming: Return OD450 nm for the following binder: 74C10A8, chimeric anti-PCSK9 mAb purified from hybridoma (antibody, V domains shown, From Harbour H2L2 mice: human variable regions, rat constant regions) VH: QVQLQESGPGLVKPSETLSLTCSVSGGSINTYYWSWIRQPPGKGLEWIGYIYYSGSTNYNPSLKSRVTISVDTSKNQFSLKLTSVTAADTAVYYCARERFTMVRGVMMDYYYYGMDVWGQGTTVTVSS VL: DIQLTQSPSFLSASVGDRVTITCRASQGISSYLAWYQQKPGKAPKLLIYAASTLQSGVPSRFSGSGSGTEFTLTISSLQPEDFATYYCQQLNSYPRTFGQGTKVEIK
Outgoing: 2.53
